# Lookup of reported composite z-score keyed by entry
Tested on: Chordin-like protein 2 (CHRDL2)
method.description: CHRDL2 small-molecule binders, primary screen, biochemical, small-molecule microarray, 635 nm fluorescence (AID 1126);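 also: printed compound slides probed with Chrdl2 protein at 4 µg/mL for 1 h at 4 C; score merges 667 nm emission intensity with signal to noise over three replicate slides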
measurement.parameters: small-molecule microarray binding, fluorescence 635 nm; higher = more signal
No unit in the answer, please; the number alone is enough.

Past entries and their recorded results:
| molecule | composite z-score |
| --- | --- |
| C=C(C(=O)CC[C@H](OC(C)=O)c1ccc(CO)o1)C(C)C | -0.413 |
| C=C(CCCC)/C(=C/C[C@H](OC(=O)c1ccncc1)c1ccc(CO)o1)c1cnc2ccccc2c1 | 0.699 |
| COc1ccc([Si](C)(C)[C@@H]2[C@@H](CC(=O)N3CCC[C@H]3CO)O[C@]3(C(=O)N(Cc4ccc(I)cc4)c4ccccc43)[C@H]2C)cc1 | 1.06 |

Q) Report composite z-score for COc1ccc([Si](C)(C)[C@H]2[C@H](CC(=O)N(CCO)Cc3ccccc3)O[C@@]3(C(=O)N(Cc4cccc(N5C(=O)COc6ccccc65)c4)c4ccccc43)[C@@H]2C)cc1 tested on Chordin-like protein 2 (CHRDL2).
A) 0.81

---

# Lookup of reported composite z-score keyed by entry
method.description: binders of probe aHhip on microarray, primary screen, stem cell growth factor project, biochemical, small-molecule microarray, fluorescence 635/667 (AID 1087);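 also: score merges spot fluorescence at 667nm with spot signal to noise ratio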
measurement.parameters: higher = more signal
No unit in the answer, please; the number alone is enough.

| compound | result.value |
| --- | --- |
| O=C(O)[C@H]1C[C@H]2C(=O)N[C@@H](Cc3ccccc3)C(=O)N2[C@H]1c1ccc(O)cc1 | -0.136 |
| CCN(CC)c1ccc(N2CC=CC34O[C@@H]5C=CCOC(=O)[C@@H]5[C@H]3C(=O)N(C(C)CO)[C@@H]4C2=O)cc1 (stereo not given in full) | -0.0296 |
| [N-]=[N+]=NCc1ccccc1C[C@@]1(C(=O)NCc2ccccc2)N=C(c2ccc(OCCCO)cc2)O[C@@H]1c1ccccc1 | -0.191 |
| O=C1c2ccccc2C(=O)c2cc([C@H]3Oc4ccccc4S(=O)(=O)N4CCC[C@@H]34)ccc21 | -0.353 |
| C=C(COC)/C(=C/C[C@H](OC(C)=O)c1ccc(CO)o1)c1cnc2ccccc2c1 | -0.0024 |
| C#CCN1C(C(=O)OCC)OC[C@H]1c1ccccc1 (stereo not given in full) | -0.492 |
| COc1ccc([Si](C)(C)[C@@H]2[C@@H](CCn3cc(CCO)nn3)O[C@]3(C(=O)N(Cc4ccc(N5C(=O)c6cccc7cccc5c67)cc4)c4ccccc43)[C@H]2C)cc1 | 0.154 |
| CC(C)(C)OC(=O)CC[C@]1(C(=O)NCc2ccccc2)N=C(c2ccc(OCCCO)cc2)O[C@H]1c1ccccc1N=[N+]=[N-] | -0.248 |

Q) Could you tell me which composite z-score is on file for C=CCN1C(=O)[C@]2(O[C@H](CCn3cc([C@H](O)c4ccccc4)nn3)[C@@H]([Si](C)(C)c3ccc(OC)cc3)[C@@H]2C)c2cc(N3CCOC3=O)ccc21 ?
A) -0.0128

Q) And the next one, COC(=O)C1=CC(c2ccc(CO)cc2)=CC(c2cccs2)N(C)C=C1C(=O)OC (stereo not given) ?
A) -0.226

Q) And the next one, CC(C)(C)OC(=O)CC[C@@]12N=C(c3ccc(OCCCO)cc3)O[C@@H]1c1ccccc1CN(Cc1ccccc1)C2=O ?
A) -0.069

Q) And the next one, C=CCC(OC(C)=O)[C@@H]1[C@@H](N(Cc2cc3ccccc3o2)C(=O)c2ccc(-c3ccccc3)cc2)c2cc(OCCCO)ccc2N1C(=O)c1ccc(-c2ccccc2)cc1 (stereo not given in full) ?
A) -0.0994

Q) And the next one, C=C(COC)C(=O)CC[C@H](OC(=O)c1cccnc1)c1cccc(OCCO)c1 ?
A) 0.503

Q) And the next one, CC(C)N1C(=O)c2ccccc2[C@@H](C(=O)NCc2ccccc2)[C@@H]1c1ccc(CO)cc1 ?
A) -0.141

Q) And the next one, COc1ccc(C#Cc2ccc3c(c2)[C@]2(C(=O)N3)[C@H](c3ccc(O)cc3)N3[C@H](c4ccccc4)[C@H](c4ccccc4)OC(=O)[C@H]3[C@@H]2C(N)=O)cc1 ?
A) -0.24
